B1: 3'-5' exoribonuclease 1, residues 65 to 114; numbered along this chain, Q8IV48 (parent)
chain: VYKEIAITNGCINRMSKEELRAKLSEFKLETRGVKDVLKKRLKNYYKKQK

# Variants of: B1
# ASSAY_SUMMARY: abundance fitness (aPCA) (normalised: wild type 0, dead -1); higher = more abundant; growth selection in yeast, the domain comes from the species named
# CONDITION: Homo sapiens
abundance fitness overview

> print(dat)
   mutant.label  test.value
1          K40V      -0.669

Ask | Give its abundance fitness value. Item: N13R
Reply | -0.415

Ask | Give its abundance fitness value. Item: A22C
Reply | -0.032

Ask | Give its abundance fitness value. Item: L20R
Reply | -0.997

Ask | Give its abundance fitness value. Item: E18F
Reply | -0.007

Ask | Give its abundance fitness value. Item: C11Y
Reply | -0.052

Ask | Give its abundance fitness value. Item: N9S
Reply | -0.067

Ask | Give its abundance fitness value. Item: I7N
Reply | -0.17

Ask | Give its abundance fitness value. Item: C11P
Reply | -0.278
